Data provenance: PubChem BioAssay AID2060340

- Test system: 349418-098-R-PDC spheroids, viability, % test/control
- assay.protocol: Anticancer human tumor 349418-098-R-PDC patient-derived lung adenocarcinoma cell line growth inhibition [IpAb]; active = viability on the fitted dose curve at most 10% of control; inactive = the rest
- experimental.setup: second compound 0.0316 µM; first compound 0.1 µM; spheroids with HUVEC and MSC
Pick from 1 (yes) = active, 0 (no) = inactive when you respond.

Test call for this compound, please: CCCS(=O)(=O)Nc1ccc(F)c(C(=O)c2c[nH]c3ncc(-c4ccc(Cl)cc4)cc23)c1F + CCN1CCN(Cc2ccc(Nc3ncc(F)c(-c4cc(F)c5nc(C)n(C(C)C)c5c4)n3)nc2)CC1
0 (no)

Test call for this compound, please: C=CCn1c(=O)c2cnc(Nc3ccc(N4CCN(C)CC4)cc3)nc2n1-c1cccc(C(C)(C)O)n1 + CCN1CCN(Cc2ccc(Nc3ncc(F)c(-c4cc(F)c5nc(C)n(C(C)C)c5c4)n3)nc2)CC1
0 (no)

Test call for this compound, please: CC1(C)CCC(CN2CCN(c3ccc(C(=O)NS(=O)(=O)c4ccc(NCC5CCOCC5)c([N+](=O)[O-])c4)c(Oc4cnc5[nH]ccc5c4)c3)CC2)=C(c2ccc(Cl)cc2)C1 + CCN1CCN(Cc2ccc(Nc3ncc(F)c(-c4cc(F)c5nc(C)n(C(C)C)c5c4)n3)nc2)CC1
0 (no)

Test call for this compound, please: COc1c(OCCCN2CCOCC2)ccc2c3n(c(=NC(=O)c4cnc(N)nc4)nc12)CCN3 + CCN1CCN(Cc2ccc(Nc3ncc(F)c(-c4cc(F)c5nc(C)n(C(C)C)c5c4)n3)nc2)CC1
1 (yes)

Test call for this compound, please: Cn1ncc(Cl)c1-c1cc(C(=O)NC(CN)Cc2cccc(F)c2)sc1Cl (stereo not given) + CCN1CCN(Cc2ccc(Nc3ncc(F)c(-c4cc(F)c5nc(C)n(C(C)C)c5c4)n3)nc2)CC1
0 (no)

---

- Tested on: 349418-098-R-PDC spheroids, viability, % test/control
- assay.protocol: Anticancer human tumor 349418-098-R-PDC cell line growth inhibition [IpAb];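 also: spheroids exposed to compounds for 7 days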
- experimental.setup: second compound 1 µM; first compound 0.00949 µM; stronger effect = lower value; spheroids with HUVEC and MSC
recorded.endpoint: viability, T/C (%)
State the answer as a number, implicitly in %.

Can you look up viability, T/C on 349418-098-R-PDC spheroids, viability, % test/control for CC(C)(C)c1cnc(CSc2cnc(NC(=O)C3CCNCC3)s2)o1 + CCN1CCN(Cc2ccc(Nc3ncc(F)c(-c4cc(F)c5nc(C)n(C(C)C)c5c4)n3)nc2)CC1 ?
13.9

Can you look up viability, T/C on 349418-098-R-PDC spheroids, viability, % test/control for Cn1cnc2c(F)c(Nc3ccc(Br)cc3Cl)c(C(=O)NOCCO)cc21 + CCN1CCN(Cc2ccc(Nc3ncc(F)c(-c4cc(F)c5nc(C)n(C(C)C)c5c4)n3)nc2)CC1 ?
9.97

Can you look up viability, T/C on 349418-098-R-PDC spheroids, viability, % test/control for CC(=O)c1c(C)c2cnc(Nc3ccc(N4CCNCC4)cn3)nc2n(C2CCCC2)c1=O + CCN1CCN(Cc2ccc(Nc3ncc(F)c(-c4cc(F)c5nc(C)n(C(C)C)c5c4)n3)nc2)CC1 ?
15.1

Can you look up viability, T/C on 349418-098-R-PDC spheroids, viability, % test/control for CC(C)(C)c1cnc(CSc2cnc(NC(=O)C3CCNCC3)s2)o1 + CC(C)NCC(C(=O)N1CCN(c2ncnc3c2C(C)CC3O)CC1)c1ccc(Cl)cc1 ?
22.1

Can you look up viability, T/C on 349418-098-R-PDC spheroids, viability, % test/control for CC(=O)c1c(C)c2cnc(Nc3ccc(N4CCNCC4)cn3)nc2n(C2CCCC2)c1=O + CC(C)NCC(C(=O)N1CCN(c2ncnc3c2C(C)CC3O)CC1)c1ccc(Cl)cc1 ?
9.63

Can you look up viability, T/C on 349418-098-R-PDC spheroids, viability, % test/control for Cn1cnc2c(F)c(Nc3ccc(Br)cc3Cl)c(C(=O)NOCCO)cc21 + CC(C)NCC(C(=O)N1CCN(c2ncnc3c2C(C)CC3O)CC1)c1ccc(Cl)cc1 ?
12.5

---

- Test system: 349418-098-R-PDC spheroids, viability, % test/control
- assay.protocol: Anticancer human tumor 349418-098-R-PDC cell line growth inhibition [IpAb];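 also: spheroids exposed to compounds for 7 days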
- experimental.setup: curve of first compound; second compound 10 µM; spheroids with HUVEC and MSC
recorded.endpoint: IC50

Given the entry CC(C)n1nc(-c2ccc3oc(N)nc3c2)c2c(N)ncnc21 + CC(C)NCC(C(=O)N1CCN(c2ncnc3c2C(C)CC3O)CC1)c1ccc(Cl)cc1 , report its measured IC50.
< 0.316 nM

Given the entry C=CCn1c(=O)c2cnc(Nc3ccc(N4CCN(C)CC4)cc3)nc2n1-c1cccc(C(C)(C)O)n1 + CC(C)NCC(C(=O)N1CCN(c2ncnc3c2C(C)CC3O)CC1)c1ccc(Cl)cc1 , report its measured IC50.
< 31.6 nM

Given the entry CC(=O)c1c(C)c2cnc(Nc3ccc(N4CCNCC4)cn3)nc2n(C2CCCC2)c1=O + CC(C)NCC(C(=O)N1CCN(c2ncnc3c2C(C)CC3O)CC1)c1ccc(Cl)cc1 , report its measured IC50.
< 0.949 nM

Given the entry Cn1cnc2c(F)c(Nc3ccc(Br)cc3Cl)c(C(=O)NOCCO)cc21 + CC(C)NCC(C(=O)N1CCN(c2ncnc3c2C(C)CC3O)CC1)c1ccc(Cl)cc1 , report its measured IC50.
< 9.49 nM

Given the entry Cn1ncnc1[C@H]1c2n[nH]c(=O)c3cc(F)cc(c23)N[C@@H]1c1ccc(F)cc1 + CC(C)NCC(C(=O)N1CCN(c2ncnc3c2C(C)CC3O)CC1)c1ccc(Cl)cc1 , report its measured IC50.
< 0.316 nM

Given the entry C=CC(=O)N1CCN(c2nc(=O)n(-c3c(C)ccnc3C(C)C)c3nc(-c4c(O)cccc4F)c(F)cc23)C(C)C1 (configuration not stated) + CC(C)NCC(C(=O)N1CCN(c2ncnc3c2C(C)CC3O)CC1)c1ccc(Cl)cc1 , report its measured IC50.
< 31.6 nM

Given the entry Cn1ncc(Cl)c1-c1cc(C(=O)NC(CN)Cc2cccc(F)c2)sc1Cl (configuration not stated) + CC(C)NCC(C(=O)N1CCN(c2ncnc3c2C(C)CC3O)CC1)c1ccc(Cl)cc1 , report its measured IC50.
< 31.6 nM

---

- System: 349418-098-R-PDC spheroids, viability, % test/control
- assay.protocol: Anticancer human tumor 349418-098-R-PDC cell line growth inhibition [IpAb];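 also: spheroids exposed to compounds for 7 days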
- experimental.setup: curve of first compound; second compound 0.0316 µM; spheroids with HUVEC and MSC
recorded.endpoint: IC50

Given the entry Cn1ncnc1[C@H]1c2n[nH]c(=O)c3cc(F)cc(c23)N[C@@H]1c1ccc(F)cc1 + CCN1CCN(Cc2ccc(Nc3ncc(F)c(-c4cc(F)c5nc(C)n(C(C)C)c5c4)n3)nc2)CC1 , report its measured IC50.
< 0.316 nM

Given the entry Cc1nc(NC(=O)N2CCCC2C(N)=O)sc1-c1ccnc(C(C)(C)C(F)(F)F)c1 (stereo not given) + CCN1CCN(Cc2ccc(Nc3ncc(F)c(-c4cc(F)c5nc(C)n(C(C)C)c5c4)n3)nc2)CC1 , report its measured IC50.
< 31.6 nM

Given the entry COc1c(OCCCN2CCOCC2)ccc2c3n(c(=NC(=O)c4cnc(N)nc4)nc12)CCN3 + CCN1CCN(Cc2ccc(Nc3ncc(F)c(-c4cc(F)c5nc(C)n(C(C)C)c5c4)n3)nc2)CC1 , report its measured IC50.
< 3.16 nM

Given the entry CC(=O)c1c(C)c2cnc(Nc3ccc(N4CCNCC4)cn3)nc2n(C2CCCC2)c1=O + CCN1CCN(Cc2ccc(Nc3ncc(F)c(-c4cc(F)c5nc(C)n(C(C)C)c5c4)n3)nc2)CC1 , report its measured IC50.
< 0.949 nM

Given the entry C=CC(=O)N1CCN(c2nc(=O)n(-c3c(C)ccnc3C(C)C)c3nc(-c4c(O)cccc4F)c(F)cc23)C(C)C1 (stereo not given) + CCN1CCN(Cc2ccc(Nc3ncc(F)c(-c4cc(F)c5nc(C)n(C(C)C)c5c4)n3)nc2)CC1 , report its measured IC50.
124 nM

---

- Tested on: 349418-098-R-PDC spheroids, viability, % test/control
- assay.protocol: Anticancer human tumor 349418-098-R-PDC cell line growth inhibition [IpAb];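 also: spheroids exposed to compounds for 7 days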
- experimental.setup: second compound 0.316 µM; first compound 0.316 µM; stronger effect = lower value; spheroids with HUVEC and MSC
- Experimental: Combinatorial screen of targeted agents with ipatasertib and abemaciclib in multi-cell type tumor spheroids […] Compounds. […] If the clinical Cmax for an agent had not been determined, the highest concentration tested was 10 microM. NCI60 Cell Culture. […] The optimal seeding densities for each of the cell lines at each time point assessed were determined prior to performing the concentration response studies. […]
Please provide measured viability, T/C for the entries that follow.
State the answer as a number, implicitly in %.

Given the entry Cn1nccc1Nc1nccc(-c2ccn(C(CO)c3ccc(Cl)c(F)c3)c(=O)c2)n1 (stereo not given) + CC(C)NCC(C(=O)N1CCN(c2ncnc3c2C(C)CC3O)CC1)c1ccc(Cl)cc1 , report its measured viability, T/C.
17.9

Given the entry C=CC(=O)N1CCN(c2nc(=O)n(-c3c(C)ccnc3C(C)C)c3nc(-c4c(O)cccc4F)c(F)cc23)C(C)C1 (stereo not given) + CCN1CCN(Cc2ccc(Nc3ncc(F)c(-c4cc(F)c5nc(C)n(C(C)C)c5c4)n3)nc2)CC1 , report its measured viability, T/C.
22.1

Given the entry C=CCn1c(=O)c2cnc(Nc3ccc(N4CCN(C)CC4)cc3)nc2n1-c1cccc(C(C)(C)O)n1 + CC(C)NCC(C(=O)N1CCN(c2ncnc3c2C(C)CC3O)CC1)c1ccc(Cl)cc1 , report its measured viability, T/C.
7.25

Given the entry C=CC(=O)N1CCN(c2nc(=O)n(-c3c(C)ccnc3C(C)C)c3nc(-c4c(O)cccc4F)c(F)cc23)C(C)C1 (stereo not given) + CC(C)NCC(C(=O)N1CCN(c2ncnc3c2C(C)CC3O)CC1)c1ccc(Cl)cc1 , report its measured viability, T/C.
51.4

Given the entry CC1(C)CCC(CN2CCN(c3ccc(C(=O)NS(=O)(=O)c4ccc(NCC5CCOCC5)c([N+](=O)[O-])c4)c(Oc4cnc5[nH]ccc5c4)c3)CC2)=C(c2ccc(Cl)cc2)C1 + CCN1CCN(Cc2ccc(Nc3ncc(F)c(-c4cc(F)c5nc(C)n(C(C)C)c5c4)n3)nc2)CC1 , report its measured viability, T/C.
21.5
